STUDY_TARGET: Rat recombinant TRPV4 (Rattus norvegicus, UniProt Q9ERZ8)
Sequence (Q9ERZ8 whole entry): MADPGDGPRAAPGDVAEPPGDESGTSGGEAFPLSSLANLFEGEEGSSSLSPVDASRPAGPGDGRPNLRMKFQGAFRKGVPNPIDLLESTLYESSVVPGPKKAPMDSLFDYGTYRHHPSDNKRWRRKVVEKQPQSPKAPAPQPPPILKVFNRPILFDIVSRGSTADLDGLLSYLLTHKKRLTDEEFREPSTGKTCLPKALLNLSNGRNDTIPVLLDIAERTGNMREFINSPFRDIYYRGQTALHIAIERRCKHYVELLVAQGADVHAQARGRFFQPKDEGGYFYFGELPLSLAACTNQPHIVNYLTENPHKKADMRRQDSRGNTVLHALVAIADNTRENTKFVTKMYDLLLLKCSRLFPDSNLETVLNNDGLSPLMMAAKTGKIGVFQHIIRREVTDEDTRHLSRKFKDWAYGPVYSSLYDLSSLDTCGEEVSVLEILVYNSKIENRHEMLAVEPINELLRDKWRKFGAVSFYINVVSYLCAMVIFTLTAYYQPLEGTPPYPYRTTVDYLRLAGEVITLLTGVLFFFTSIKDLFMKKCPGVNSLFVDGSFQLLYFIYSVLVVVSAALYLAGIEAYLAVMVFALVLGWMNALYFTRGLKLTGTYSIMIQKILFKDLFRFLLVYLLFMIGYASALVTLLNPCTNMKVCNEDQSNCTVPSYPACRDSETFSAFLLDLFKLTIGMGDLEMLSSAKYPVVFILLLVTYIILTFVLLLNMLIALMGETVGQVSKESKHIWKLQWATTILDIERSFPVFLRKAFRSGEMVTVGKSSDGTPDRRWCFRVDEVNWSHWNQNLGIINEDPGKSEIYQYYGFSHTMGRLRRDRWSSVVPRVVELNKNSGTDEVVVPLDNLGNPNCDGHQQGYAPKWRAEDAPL
PROTOCOL_NOTES: cell-based
EXPERIMENTAL_PARAMETERS: vs 4αPDD 1μM; read-out: TRPV4 IC50 for desensitization
Catalogue of IC50 values

{"RECORD_SMILES": "CCCCCCC(C)(C)c1cc(OC)c([C@@H]2C=C(CO)[C@@H]3C[C@H]2C3(C)C)c(OC)c1", "IC50": "> 100 µM"}
{"RECORD_SMILES": "CCCC(C)(C)c1ccc2c(c1)OC(C)(C)[C@@H]1CC=C(C)C[C@@H]21", "IC50": "> 100 µM"}
{"RECORD_SMILES": "COc1ccc(C(=O)c2c(C)n(CCN3CCOCC3)c3cc(I)ccc23)cc1", "IC50": "3.2 µM"}
{"RECORD_SMILES": "CCCCCCC(C)(C)c1cc(OC)c(C2=C[C@H]3CC[C@]2(CO)C3(C)C)c(OC)c1", "IC50": "> 100 µM"}
